Quick list: IC50 per entry.
# System: 188146-221-R-J1-PDC complex spheroid viability;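 also: spheroids exposed to compounds for seven days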
# EXPERIMENT_NOTES: Anticancer human tumor 188146-221-R-J1-PDC patient-derived colon adenocarcinoma cell line growth inhibition [POLQ]
# SETTINGS: curve of first compound; second compound 3.16 µM

| MOLECULE | IC50 |
| --- | --- |
| COc1cc2cc(C(=O)CCC(=O)O)sc2cc1OC + Cc1cccc(N(C)C(=O)C2C(O)CCN2c2nc(C)cc(C(F)(F)F)c2C#N)c1 | > 10 µM |
| O=C(Nc1ccc(O)c(NS(=O)(=O)c2ccc(F)cc2)c1)c1ccc(-c2ccccc2)cc1 + COC1C(OC(N)=O)C(O)C(Oc2ccc3c(O)c(NC(=O)c4ccc(O)c(CC=C(C)C)c4)c(=O)oc3c2C)OC1(C)C | > 10 µM |
| CC[C@@]1(O)C(=O)OCc2c1cc1n(c2=O)Cc2cc3c(CN(C)C)c(O)ccc3nc2-1 + Cc1cccc(N(C)C(=O)C2C(O)CCN2c2nc(C)cc(C(F)(F)F)c2C#N)c1 | > 0.1 µM |
| C#Cc1c(F)ccc2cc(O)cc(-c3ncc4c(N5CC6CCC(C5)N6)nc(OCC56CCCN5CC(F)C6)nc4c3F)c12 (stereo not given) + Nc1ccc(C#CCN(C(=O)Cc2ncc(C(F)(F)F)cc2C(F)(F)F)c2ccc(F)cc2)nn1 | > 10 µM |
| CC1COCCN1c1cc(-c2ccnn2C)c2ccnc(-c3ccn[nH]3)c2n1 (stereo not given) + Cc1cccc(N(C)C(=O)C2C(O)CCN2c2nc(C)cc(C(F)(F)F)c2C#N)c1 | 0.232 µM |

These data points were gathered from PubChem BioAssay AID1963851.
